Sourced from PubChem BioAssay (EPA / NIEHS)

Read-out: Monocyte Chemoattractant Protein-1 (MCP1), CCL2 (gene 6347)
ASSAY NAME: BSK_3C_MCP1: BioMAP Diversity Plus: 3C Assay for Monocyte Chemoattractant Protein-1 (MCP1) Biomarker Activity (AID 2283017)
PROTOCOL CONDITIONS: primary human endothelial cells (HUVEC); actives raise or lower the signal
Calls of active or inactive are those of the source. How the source made its calls: active means hit-call score of the fitted dose curve at least 0.9, where 1 is the maximum; inactive means score below 0.9.
PARAMETER: AC50

[[record]]
compound = "Cc1cc(SC2=C(O)C[C@@](CCc3ccc(N)cc3)(C(C)C)OC2=O)c(C(C)(C)C)cc1CO"
reported = "inactive"

[[record]]
compound = "CCN(CC)CCOc1ccc(C(=C(Cl)c2ccccc2)c2ccccc2)cc1"
reported = "11.6 µM (active)"

[[record]]
compound = "CCCCOC(=O)CCCCC(=O)OCCCC"
reported = "inactive"

[[record]]
compound = "Cc1ccc(C(C)(C)C)c(O)c1"
reported = "34.7 µM (active)"

[[record]]
compound = "Nc1nc(=S)c2[nH]cnc2[nH]1"
reported = "inactive"

[[record]]
compound = "CCCCC(CC)COC(=O)CCCCCCCC(=O)OCC(CC)CCCC (stereo not given)"
reported = "inactive"

[[record]]
compound = "CC(C)NCC(O)c1ccc(O)c(O)c1 (stereo not given)"
reported = "inactive"

[[record]]
compound = "COC(=O)[C@H]1[C@H]2C[C@@H]3c4[nH]c5cc(OC)ccc5c4CCN3C[C@H]2C[C@@H](OC(=O)c2cc(OC)c(OC)c(OC)c2)[C@@H]1OC"
reported = "16.9 µM (active)"

[[record]]
compound = "CCCCCCCC(=O)OC"
reported = "inactive"

[[record]]
compound = "N[C@@H](Cc1c[nH]c2ccccc12)C(=O)O"
reported = "inactive"

[[record]]
compound = "CC(C)c1cccc(C(C)C)c1"
reported = "inactive"

[[record]]
compound = "C/C=C/c1ccc(OC)cc1"
reported = "inactive"

[[record]]
compound = "Cc1c(C)c2c(c(C)c1O)CCC(C)(COc1ccc(CC3SC(=O)NC3=O)cc1)O2 (stereo not given)"
reported = "30.6 µM (active)"

[[record]]
compound = "COC(=O)CCC(=O)OC"
reported = "inactive"

[[record]]
compound = "CCc1nc(N)nc(N)c1-c1ccc(Cl)cc1"
reported = "inactive"

